Tested on: MDCK
assay_procedure: Antiviral activity against parainfluenza 1 (sendai) virus was determined in madin Darby canine kidney (MDCK)i cells
Assay type: functional, Canis lupus familiaris
test_context: read-out: ED50 (the source's name)
Answer each item with its documented pEC50.
One number for each entry, as −log10 of the molar value.

Cn1c(C2OC2c2ccccc2)cc(=O)n(C)c1=O (stereo in doubt; 6c); 3.71

Would you mind telling me what pEC50 value was observed for Cn1c(C2OC2c2ccccc2)cc(=O)n(C)c1=O (stereo in doubt; 6b) ?
6.42

----------
Test system: MDCK
assay_procedure: Antiviral activity against parainfluenza 1 (sendai) virus was determined in madin Darby canine kidney (MDCK)i cells
Format: functional, Canis lupus familiaris
test_context: Canis lupus familiaris, MDCK; read-out: ED50 (the source's name)
Exercise: state measured pEC50 for each of the compounds provided.
Numbers only, as −log10 of the molar value.

Cn1c(OC2CCCCC2)nc(CC2(c3ccccc3)CO2)cc1=O (configuration not stated); 3.83
CCCOc1nc(CC23CCCCC2O3)cc(=O)n1C (configuration not stated); 3.75
CC1OC1(C)Cc1cc(=O)n(C)c(OC2CCCCC2)n1 (configuration not stated); 3.77
Cn1c(CC2(c3ccccc3)CO2)cc(=O)n(C)c1=O (configuration not stated); 6.74
Cn1c(CC23CCCC2O3)cc(=O)n(C)c1=O (configuration not stated); 6.38
CCCOc1nc(CC2(c3ccccc3)CO2)cc(=O)n1C (configuration not stated); 4.78
Cn1c(CC2(C(C)(C)C)CO2)cc(=O)n(C)c1=O (configuration not stated); 6.23
Cn1c(C2OC2(C)c2ccccc2)cc(=O)n(C)c1=O (configuration not stated); 6.33

Consider now this further compound.
Would you mind telling me what pEC50 value was observed for Cn1c(CC2(C)CO2)cc(=O)n(C)c1=O (configuration not stated) ?
6.62

----------
Kindly state pEC50 for each of the entries shown.
Tested on: MDCK
assay_procedure: Antiviral activity against parainfluenza 1 (sendai) virus was determined in madin Darby canine kidney (MDCK)i cells
Assay type: functional, Canis lupus familiaris
test_context: Canis lupus familiaris, MDCK; read-out: ED50 (the source's name)
pEC50: −log10 of the molar value.

# count of solved cases: 2
C[C@H]1O[C@@]1(C)Cc1cc(=O)n(C)c(=O)n1C; < 5.70
C[C@@H]1O[C@@]1(C)Cc1cc(=O)n(C)c(=O)n1C; < 5.70

Then there is this compound:
What value of pEC50 has been reported for the following compound? Cn1c(CC23CCCCC2O3)cc(=O)n(C)c1=O (stereo not drawn)
< 5.70
